tested on: L1210; assay: Cytotoxicity against mouse L1210 cells after 72 hrs by trypan blue dye exclusion test; format: functional, cell-based; details: L1210, 72 h
Each entry below carries its recorded IC50.

structure-smiles	limit-operator	IC50 [µM]
CCN1C(=O)CN/C1=N\c1ccc2cc3ccc(/N=C4\NCC(=O)N4CC)cc3nc2c1	>	100
CCCCCCN1C(=O)CN/C1=N\c1ccc2cc3ccc(/N=C4\NCC(=O)N4CCCCCC)cc3nc2c1.Cl	=	5.28
CCCN1C(=O)CN/C1=N\c1ccc2cc3ccc(/N=C4\NCC(=O)N4CCC)cc3nc2c1.Cl	=	65.4
CCCCCN1C(=O)CN/C1=N\c1ccc2cc3ccc(/N=C4\NCC(=O)N4CCCCC)cc3nc2c1	=	15.7
CCCCN1C(=O)CN/C1=N\c1ccc2cc3ccc(/N=C4\NCC(=O)N4CCCC)cc3nc2c1	=	27.3
